assay-comment: C. albicans growth with fluconazole, confirmation, fluorescence, retest (AID 2467)
Type: functional, cell-based
Calls of active or inactive are those of the source. Cut-off read from the data, not from the text of the source: actives have a measured EC50 and inactives only a lower limit.
Attribute: EC50

O=C(c1ccccc1)c1c[nH]c(C(=O)NNc2ccccc2)c1 ... > 38 µM (not active)
COc1ccc(C(=O)NC(=S)NNC(=O)c2cnccn2)cc1 ... 2.02 µM (active)
Cc1ccc(-c2nc3sc(C#N)c(N)n3c(=O)c2C#N)cc1 ... 1.72 µM (active)
C[n+]1c(-c2ccccc2)cc(-c2ccc(Cl)cc2)cc1-c1ccccc1.[O-][Cl+3]([O-])([O-])[O-] ... 0.756 µM (active)
COc1cccc(CNCCc2c[nH]c3ccccc23)c1OCc1ccccc1F ... 1.5 µM (active)

Q: # query: EC50 of entry "CN(C)c1cc(N/N=C/c2ccc(Cl)cc2)nc(N(C)C)n1"
Result: 0.401 µM (active)

Q: // repeat for "Cc1ccc(C(=O)CC(=O)c2ccccc2C)c(O)c1" and report
Result: > 38 µM (not active)
